Where do the numbers come from? From PubChem BioAssay AID179.

Tested on: CEM cells HIV-1 protection, formazan growth assay
Experiment: NCI AIDS Antiviral Assay
Conditions: measured here: growth of uninfected CEM cells
Protocol: The ability of compounds to protect human CEM cells from HIV-1 infection is measured as a screen for new compounds capable of inhibiting the HIV virus. Five concentrations of drug were tested on uninfected and infected cells and cell growth was measured using a soluble formazan assay. […] Compounds that provided at least 50% protection were retested. Compounds that provided at least 50% protection on retest were listed as moderately active. […]
Measured IC50 by item

Would you please look over these solved cases?
O=C(O)CCCC(=O)Nn1c(Cc2ccc(Cl)cc2)n[nH]c1=O : > 200 µM
CC(=O)OC1Sc2ccccc2C(=O)N2CCCC12 (stereo unspecified) : > 200 µM
CC1(C)C2CCC(=O)C1C(OCc1ccccc1)C2 (stereo unspecified) : 95.5 µM

Record `NNC(=O)Cn1ccnn1` has CEM cells HIV-1 protection, formazan growth assay IC50 equal to > 200 µM

Record CCC1OC2C(CC=C(C)C)=C3OC(C)(O)C(C)(CC)C(O)C3=C3OC(=O)C=C1C32 (stereo unspecified) has CEM cells HIV-1 protection, formazan growth assay IC50 equal to 30.9 µM

Record `C=CCn1c2c(c3ccccc3c1=O)C(=O)c1ccccc1-2` has CEM cells HIV-1 protection, formazan growth assay IC50 equal to > 91.2 µM
